Test system: pigweed (Amaranthus retroflexus)
Experiment: Test B pre-/postemergence plant response
Assay type: in vivo
Conditions: 31 g ai/ha, Preemergence; 0 to 100 scale where 0 is no effect and 100 is complete control
observedProperty: Plant response rating, Pigweed

1. Clc1cnc(Oc2ccccc2-c2cc(Cl)ccn2)nc1; 60
2. FC(F)c1cc(-c2ccccc2Oc2ncc(Cl)cn2)co1; 0
3. COc1cccc(Oc2ncc(Cl)cn2)c1-c1cc(C)no1; 10
4. C=C(C)c1cc(-c2ccccc2Oc2ncc(Br)cn2)on1; 0
5. CC(=O)c1cc(-c2ccccc2Oc2ncc(Br)cn2)no1; 0

In: Param item = FC(F)(F)COc1cc(-c2ccccc2Oc2ncc(Cl)cn2)on1 ; retrieve measured Plant response rating, Pigweed.
Out: 30

In: Param item = Cn1nc(-c2c(C#N)cccc2Oc2ncc(Cl)cn2)cc1C(F)(F)F ; retrieve measured Plant response rating, Pigweed.
Out: 0

In: Param item = Cn1nc(-c2c(Br)cccc2Oc2ncc(Cl)cn2)cc1C(F)(F)F ; retrieve measured Plant response rating, Pigweed.
Out: 0

----------
Tested on: wild oat (Avena fatua)
Assay: Test E pre-/postemergence plant response
Assay type: in vivo
Conditions: post-emergence, 62 g ai/ha, Postemergence, scale 0 to 100, read-out: Plant response rating, Oat, Wild
The entries below come with measured pest or weed control at 62 g/ha values attached.
Respond with the bare value in %.

// known answers, use as guide
1. FC(F)(F)c1cc(-c2ccccc2Oc2ncc(Cl)cn2)no1 [Compound 200]; 30
2. Fc1cccc(Oc2ncc(Cl)cn2)c1-c1cc(C(F)(F)F)on1 [Compound 168]; 40
3. FC(F)c1cc(-c2ccccc2Oc2ncc(Br)cn2)no1 [Compound 62]; 35
4. FC(F)c1cc(-c2ccccc2Oc2ncc(Cl)cn2)no1 [Compound 35]; 35

In: Param item = Fc1cccc(Oc2ncc(Cl)cn2)c1-c1cc(C(F)F)no1 [Compound 144] ; retrieve measured pest or weed control at 62 g/ha.
Out: 65

----------
The entries below come with measured pest or weed control at 62 g/ha values attached.
System: surinam grass (Brachiaria decumbens)
Experiment: Test F pre-/postemergence plant response
Type: in vivo
Settings: Urochloa decumbens, pre-emergence; Preemergence; scale 0 to 100; read-out: Plant response rating, Surinam Grass
Respond with the bare value in %.

In: Param item = FC(F)c1cc(-c2ccccc2Oc2ncc(Br)cn2)no1 ; retrieve measured pest or weed control at 62 g/ha.
Out: 15

In: Param item = Fc1cccc(Oc2ncc(Br)cn2)c1-c1cc(C(F)F)no1 ; retrieve measured pest or weed control at 62 g/ha.
Out: 0

In: Param item = FC(F)c1cc(-c2ccccc2Oc2ncc(Cl)cn2)no1 ; retrieve measured pest or weed control at 62 g/ha.
Out: 20

In: Param item = FC(F)c1cc(-c2ccccc2Oc2ncc(Cl)cn2)on1 ; retrieve measured pest or weed control at 62 g/ha.
Out: 0

In: Param item = Fc1cccc(Oc2ncc(Cl)cn2)c1-c1cc(C(F)(F)F)on1 ; retrieve measured pest or weed control at 62 g/ha.
Out: 70

----------
Tested on: Italian ryegrass (Lolium multiflorum)
Experiment: Test B pre-/postemergence plant response
Format: in vivo
Details: Preemergence, 125 g ai/ha; 0 to 100 scale (0 no effect, 100 complete control)
Text: […]
observedProperty: Ryegrass, Italian plant response rating
Number only, please.

// known answers, use as guide
1) FC(F)Oc1cccc(Oc2ncc(Cl)cn2)c1-c1cc(C(F)F)no1; 30
2) FC(F)(F)COc1cc(-c2ccccc2Oc2ncc(Cl)cn2)on1; 10

Consider now this further compound.
In: Any idea what Ryegrass, Italian plant response rating came out for FC(F)(F)COCc1cc(-c2ccccc2Oc2ncc(Cl)cn2)on1 on Italian ryegrass (Lolium multiflorum)?
Out: 0

----------
The entries below come with measured pest or weed control at 16 g/ha values attached.
System: wild mustard (Sinapis arvensis)
Assay: Test E pre-/postemergence plant response
Type: in vivo
Conditions: Brassica, pre-emergence; 16 g ai/ha, Preemergence; scale 0 to 100; read-out: Plant response rating, Mustard, Wild
Text: […] Treated plants and controls were maintained in a controlled growth environment for 7 to 21 days after which time all species were compared to controls and visually evaluated. […]

1. Fc1cccc(Oc2ncc(Br)cn2)c1-c1cc(C(F)F)no1 [Compound 145]; 95%
2. Fc1cccc(Oc2ncc(Cl)cn2)c1-c1cc(C(F)F)on1 [Compound 55]; 80%
3. Fc1cccc(Oc2ncc(Cl)cn2)c1-c1cc(C(F)(F)F)on1 [Compound 168]; 80%

Consider now this further compound.
In: Param item = Fc1cccc(Oc2ncc(Cl)cn2)c1-c1cc(C(F)F)no1 [Compound 144] ; retrieve measured pest or weed control at 16 g/ha.
Out: 90%

----------
System: giant foxtail (Setaria faberii)
Assay: Test B pre-/postemergence plant response
Format: in vivo
Settings: 125 g ai/ha, postemergence; 0 to 100 scale, 0 no effect, 100 complete control
The entries below come with measured Plant response rating, Foxtail, Giant values attached.
Number only, please.

1) Clc1cnc(Oc2ccccc2-c2nccc(Cl)n2)nc1; 0
2) FC(F)(F)c1cnc(Oc2ccccc2-c2cscn2)nc1; 0
3) Cc1cc(-c2c(F)cccc2Oc2ncc(Cl)cn2)on1; 80
4) Brc1cnc(Oc2ccccc2-c2ccns2)nc1; 0
5) FC(Cl)c1cc(-c2ccccc2Oc2ncc(Cl)cn2)no1 (stereo not shown); 90
6) N#Cc1cccc(Oc2ncc(F)cn2)c1-c1ccc(Cl)cn1; 0
7) FCc1cc(-c2ccccc2Oc2ncc(Cl)cn2)on1; 50
8) Clc1cnc(Oc2ccccc2-c2nnc(C3CC3)o2)nc1; 0
9) FC(F)c1cc(-c2ccccc2Oc2ncc(Cl)cn2)ncn1; 10

In: Param item = N#Cc1cccc(Oc2ncc(Cl)cn2)c1-c1ccc(Cl)cn1 ; retrieve measured Plant response rating, Foxtail, Giant.
Out: 30

----------
Test system: pigweed (Amaranthus retroflexus)
Experiment: Test B pre-/postemergence plant response
Type: in vivo
Conditions: Preemergence, 500 g ai/ha; 0 to 100 scale where 0 is no effect and 100 is complete control
observedProperty: Plant response rating, Pigweed
Number only, please.

// known answers, use as guide
1) FC(F)(F)c1ccnc(-c2ccccc2Oc2ncc(Br)cn2)c1 [Compound 26]; 100
2) O=[N+]([O-])c1cc(Cl)cnc1-c1ccccc1Oc1ncc(Cl)cn1 [Compound 201]; 0
3) Cc1c(-c2ccccc2Oc2ncc(Cl)cn2)noc1C(F)(F)F [Compound 167]; 20
4) Fc1cnc(Oc2ccccc2-c2cc(C(F)(F)F)on2)nc1 [Compound 206]; 80
5) FC(F)(F)c1cc(-c2ccccc2Oc2ncc(Br)cn2)on1 [Compound 64]; 100

In: Param item = FC(F)(F)Cn1cnc(-c2ccccc2Oc2ncc(Cl)cn2)c1 [Compound 161] ; retrieve measured Plant response rating, Pigweed.
Out: 0

----------
System: corn (Zea mays)
Test: Test D pre-/postemergence plant response
Assay type: in vivo
Conditions: Postemergence, 16 g ai/ha; scale 0 to 100 (0 no effect, 100 complete control)
The entries below come with measured Corn plant response rating values attached.
Number only, please.

1) Fc1ccc(Oc2ncc(Cl)cn2)c(-c2cc(C(F)F)on2)c1Cl; 5
2) FC(F)(Br)c1cc(-c2ccccc2Oc2ncc(Cl)cn2)no1; 5

Consider now this further compound.
In: Param item = Fc1cccc(Oc2ncc(Br)cn2)c1-c1cc(C(F)F)on1 ; retrieve measured Corn plant response rating.
Out: 5

----------
The entries below come with measured Velvetleaf plant response rating values attached.
System: velvetleaf (Abutilon theophrasti)
Assay: Test D pre-/postemergence plant response
Format: in vivo
Details: Postemergence, 62 g ai/ha; scale 0 to 100, 0 no effect, 100 complete control
Number only, please.

// known answers, use as guide
1. Clc1cnc(Oc2ccccc2-c2cc(Cl)sn2)nc1; 30
2. FCc1cc(-c2c(Br)cccc2Oc2ncc(Cl)cn2)no1; 30
3. Cc1cc(-c2c(F)cccc2Oc2ncc(Cl)cn2)on1; 45
4. Clc1cnc(Oc2ccccc2-c2ccon2)nc1; 10

Consider now this further molecule.
In: Param item = FCc1cc(-c2ccccc2Oc2ncc(Cl)cn2)on1 ; retrieve measured Velvetleaf plant response rating.
Out: 30

----------
The entries below come with measured pest or weed control at 16 g/ha values attached.
Tested on: windgrass (Apera spica-venti)
Assay: Test E pre-/postemergence plant response
Type: in vivo
Details: pre-emergence, 16 g ai/ha, Preemergence, scale 0 to 100, read-out: Plant response rating, Windgrass
Form entry: enter the amount, then its unit.

1) Fc1cccc(Oc2ncc(Cl)cn2)c1-c1cc(C(F)F)on1 [Compound 55]; 5%

In: Param item = FC(F)c1cc(-c2ccccc2Oc2ncc(Cl)cn2)on1 [Compound 53] ; retrieve measured pest or weed control at 16 g/ha.
Out: 0%

In: Param item = FC(F)c1cc(-c2ccccc2Oc2ncc(Br)cn2)no1 [Compound 62] ; retrieve measured pest or weed control at 16 g/ha.
Out: 0%

In: Param item = Fc1cccc(Oc2ncc(Cl)cn2)c1-c1cc(C(F)F)no1 [Compound 144] ; retrieve measured pest or weed control at 16 g/ha.
Out: 10%
